- Assay protocol: FRG1 promoter luciferase signal modulators, primary screen, FRG1 inhibition for FSHD, cell-based, C2C12 myotubes, firefly/Renilla luciferase, luminescence (AID 1084)
- Condition set: higher = more signal, called active from +8 up or from −8 down
Label scheme for z-score: lower than -0.04 is criterion not met, -0.04 and above is criterion met.

Use these answered entries as a reference point.
[
  {
    "Molecule": "COC(=O)CC=C[C@@H](C)[C@@H](C=NOC[C@@H](O)[C@H]1O[C@@H]2OC(C)(C)O[C@@H]2[C@H]1O)NS(=O)(=O)c1ccc(C)cc1",
    "Class assignment": "criterion met"
  },
  {
    "Molecule": "O=C1C[C@@H](O)[C@@H](O)[C@@H]2[C@@H]3C(=O)N(c4cccc(Oc5ccccc5)c4)C(=O)[C@@H]3CC[C@H]12",
    "Class assignment": "criterion not met"
  },
  {
    "Molecule": "CCOC(=O)[C@H](CC(C)C)NC(=O)CCC1CC(OC(=O)NCc2cccc3ccccc23)CC2(CCCC(COC(=O)NCCOC)O2)O1 (stereo not given in full)",
    "Class assignment": "criterion not met"
  },
  {
    "Molecule": "CCOC(=O)[C@H](Cc1ccccc1)NC(=O)CCC1CC(OC(=O)NCc2ccc3c(c2)OCO3)CC2(CCCC(COC(=O)NCCc3ccccc3OC)O2)O1 (stereo not given in full)",
    "Class assignment": "criterion met"
  }
]

Now look at this one.
Is reported z-score greater than or equal to -0.04 here: `CC(C)CON=C1C[C@@H](O)[C@@H](O)[C@@H]2[C@@H]3C(=O)N(C4CCCCC4)C(=O)[C@@H]3CC[C@H]12`
criterion not met

Data credit: PubChem BioAssay
